- ASSAY SYSTEM: monkey GPC3 on HEK293T-monkey GPC3 cells (monkey)
- PROTOCOL DESCRIPTION: FACS on HEK293T-monkey GPC3 cells
binders and their reported EC50
// units = nM; emit number, no label

q: Item GC33 IgG (antibody, V domains shown) VH: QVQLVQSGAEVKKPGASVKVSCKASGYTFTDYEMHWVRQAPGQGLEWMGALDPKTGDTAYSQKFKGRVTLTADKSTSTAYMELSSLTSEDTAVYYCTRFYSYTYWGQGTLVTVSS VL: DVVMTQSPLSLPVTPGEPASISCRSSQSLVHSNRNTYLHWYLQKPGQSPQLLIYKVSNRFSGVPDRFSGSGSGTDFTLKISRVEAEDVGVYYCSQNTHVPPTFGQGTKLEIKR has what recorded EC50?
a: 5.96

q: Can you check hAb007LH3L1b (antibody, human IgG1, V domains shown) VH: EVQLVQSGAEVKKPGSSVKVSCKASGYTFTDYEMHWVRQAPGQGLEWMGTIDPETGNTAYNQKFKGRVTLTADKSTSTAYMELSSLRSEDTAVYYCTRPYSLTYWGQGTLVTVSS VL: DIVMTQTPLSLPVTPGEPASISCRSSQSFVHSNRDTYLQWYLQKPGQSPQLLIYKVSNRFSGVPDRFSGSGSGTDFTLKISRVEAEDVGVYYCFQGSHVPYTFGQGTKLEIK next?
a: 13.7

q: Could you do the same for hAb005LH2L1 (antibody, human IgG1, V domains shown) VH: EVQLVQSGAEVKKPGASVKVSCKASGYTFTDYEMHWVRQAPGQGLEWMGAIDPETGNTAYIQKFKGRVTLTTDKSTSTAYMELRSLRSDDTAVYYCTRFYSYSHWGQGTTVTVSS VL: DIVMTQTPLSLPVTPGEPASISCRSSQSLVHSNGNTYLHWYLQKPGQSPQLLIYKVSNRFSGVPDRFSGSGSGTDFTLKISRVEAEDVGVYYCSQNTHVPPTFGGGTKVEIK , please?
a: 2.88

q: Same read-out for hAb007LH1L1d (antibody, human IgG1, V domains shown) VH: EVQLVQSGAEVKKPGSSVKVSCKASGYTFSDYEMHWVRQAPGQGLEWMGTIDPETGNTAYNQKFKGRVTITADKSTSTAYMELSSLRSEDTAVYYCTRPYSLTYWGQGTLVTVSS VL: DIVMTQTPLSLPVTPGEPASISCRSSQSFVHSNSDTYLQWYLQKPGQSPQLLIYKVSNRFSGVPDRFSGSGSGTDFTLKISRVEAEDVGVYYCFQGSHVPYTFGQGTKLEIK ?
a: 13.6

q: Try this binder next: hAb006LH3L1 (antibody, human IgG1, V domains shown) VH: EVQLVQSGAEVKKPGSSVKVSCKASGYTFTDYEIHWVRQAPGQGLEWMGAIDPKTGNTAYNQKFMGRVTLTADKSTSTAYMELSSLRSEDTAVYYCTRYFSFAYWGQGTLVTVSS VL: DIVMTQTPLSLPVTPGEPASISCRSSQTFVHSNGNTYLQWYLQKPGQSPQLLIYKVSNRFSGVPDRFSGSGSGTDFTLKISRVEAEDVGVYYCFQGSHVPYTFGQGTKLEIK
a: 1.7

FYI, the data here is from patent US20260116991A1.
